Target: T1, histidine-tagged human uPAR (Sino#10925-H08H) (human, UniProt Q03405 23-303)
T1 construct: also called uPAR-His
Assay: BLI (Octet), antibody on anti-human Fc sensor, uPAR from 50 nM;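 note: antibodies captured at 10 µg/mL on anti-human Fc biosensors, with uPAR as analyte in a twofold dilution series from 50 nM downward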
Assign pKd to each entry below.
To interpret pKd, take it as minus log10 of a concentration measured in moles per litre.

**Q:** # input binder: M1-H1/L4 (antibody, V domains shown, also called humanized M1) VH: EVQLVQSGAEVKKPGATVKISCTASGFNIKDEYINWVKQRPGKGLEWIGWIDPENGDTEYASKFQGRVTITADTSTDTAYLELSSLRSEDTAVYYCTGGNYVGWFPYWGQGTLVTVSS VL: QIVLTQSPATLSASPGERVTMSCSASSSVSYMHWYQQKPGTSPRRWLYDTSKLASGVPARFSGSGSGTDYTLTISSLEPEDFATYYCQQWSSNPPYTFGQGTKLEIKT ; wanted: its pKd
**A:** 8.83

**Q:** Same thing, different binder: M8-Chimeric (antibody, V domains shown) VH: QIQLVQSGPELKKPGETVKISCKASGNTFTDYGMNWVKQSPGKGLKWMGWINTNTGEPTYADDFKGRFAFSLETSASTAYLQINNLKNEDMATYFCAHYSFDYWGQGTTLTVSS VL: DIQMTQSPASLSVSVGQTVTITCRTSENIYSNLAWYQQKPGKSPQLLVYAATNLADGVPSRFSGSGSGTQYSLKINSLQSEDFGSYYCQHFWGTPWTFGGGTKLEIK
**A:** 8.75

**Q:** Same thing, different binder: M1-H3/L1 (antibody, V domains shown, also called humanized M1) VH: EVQLQQSGAEVKKPGATVKLSCTASGFNIKDEYINWVKQRPGQGLEWIGWIDPENGDTEYASKFQGRATITADTSTDTAYLELSSLRSEDTAVYYCTGGNYVGWFPYWGQGTLVTVSS VL: EIVLTQSPATLSLSPGERATLSCSASSSVSYMHWYQQKPGTSPRRWIYDTSKLASGVPARFSGSGSGTDFTLTISSLEPEDFAVYYCQQWSSNPPYTFGQGTKLEIKT
**A:** 8.79

**Q:** Same thing, different binder: M1-H3/L4 (antibody, V domains shown, also called humanized M1) VH: EVQLQQSGAEVKKPGATVKLSCTASGFNIKDEYINWVKQRPGQGLEWIGWIDPENGDTEYASKFQGRATITADTSTDTAYLELSSLRSEDTAVYYCTGGNYVGWFPYWGQGTLVTVSS VL: QIVLTQSPATLSASPGERVTMSCSASSSVSYMHWYQQKPGTSPRRWLYDTSKLASGVPARFSGSGSGTDYTLTISSLEPEDFATYYCQQWSSNPPYTFGQGTKLEIKT
**A:** 8.89
